system: MS2 coat protein; test: apparent KD of MS2 coat protein; designed switch direction (-1 OFF switch, 1 ON switch): -1; higher = weaker reporter binding; details: input ligand: FMN 200 uM
Please provide measured apparent KD of MS2 coat protein for the entries that follow.
Give the value; after it, write the unit.

**Query** Which value of apparent KD of MS2 coat protein has been reported for UUAGCGUAAGUAAGGAUAUGCUGGUCGAAAGACCAGCAGAAGGUACAUGAGGAUCACCCAUGUUGAUUCGUUGC [Mod of JL 13 - Jieux - Brourd's mod of Exclusion 4] (Eterna round: R97, puzzle: Brourd's mod of Exclusion 4) in the records?
**Result** 284 nM

**Query** Now try ACUGGUCGAGGAUAUACAUGAGGAUCACCCAUGUUGAUCAACUGCCGAUAGGCAGAAUGUAGAAGGCGACCAGU [E3/7-A2] (Eterna round: R97, puzzle: Exclusion 3) .
**Result** 119 nM

**Query** Now try UACCUGAGGCAAAGCUUUAGGCUUACAUGAGGAUCACCCAUGUAGGAUAUGGUAGGCAAAGCUUACCAGAAGGACAUGGAAAUU [Mat - Exclusion NG 3 - Mod of JL - D23] (Eterna round: R96, puzzle: Exclusion NG 3) .
**Result** 398 nM

**Query** Now try GCGGACUAGAUCGUGAGAUCAGAGACAUGAGGAUCACCCAUGUAGGAUAUCGAUUCGAAACGAAUCGAGAAGGGCAUAGUCCGC [JL denovo 7] (Eterna round: R96, puzzle: Exclusion NG 3) .
**Result** 17.1 nM

**Query** Now try UUUUAAUAUGAAGGAUAUACUUAACAUGAGGAUCACCCAUGUGGUGUUGUGAGUGAGUGAGUUUAGUAGAAGGUCAAUGAUUUU [JMF's solution 69] (Eterna round: R96, puzzle: Exclusion NG 2) .
**Result** 638 nM

**Query** Now try AAGGGUACUUUCAGAACGACAUGAGGAUCACCCAUGUAGACUGAGGAUAUCUACUUCUAAGGACGGGAGAAGGCAGUGUAAUGU [Ex NG3 #72] (Eterna round: R96, puzzle: Exclusion NG 3) .
**Result** 11.4 nM

**Query** Now try CAUUAUUAUCGAGGAUAUCGUAUUGAGAUACUAUGAGAAGGCGGGAUAAACAUGAGGAUCACCCAUGUGAGCCUGAUGCUUGUG [Ex NG1 #37] (Eterna round: R96, puzzle: Exclusion NG 1) .
**Result** 17.4 nM

**Query** Now try CAUGGUUAACGAUUAUUCAACAUGAGGAUCACCCAUGUCUCUUUUUCUUUUUGCUCGUCUUAUCCUCCUUUGUUCAC [JR_STOV1_v2_Sub0102] (Eterna round: R97, puzzle: Sensor, turn-off variant 1) .
**Result** 379 nM

**Query** Now try CGGGCGCGUGUAGGAUAUCGGGCCCGGUGGGCCCGAGAAGGACAUGAGGAUCACCCAUGUGCCCGGGUUGCCCGGGCGCGCCCG [-50, -49 kcal and 14% A] (Eterna round: R96, puzzle: Exclusion NG 1) .
**Result** 14.6 nM

* * *

system: K4 kissing-loop RNA reporter; experiment: apparent KD of K4 kissing-loop reporter; higher = weaker reporter binding; conditions: Eterna round: R107; input ligand: arginine 13.2 mM;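 further: bound reporter read as fluorescence of individual clusters on recovered sequencing chips by microscopy, with normalized cluster intensities fitted with a binding model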
Cut-off 200 nM on apparent KD of K4 kissing-loop reporter, inclusive. At or above means yes (1); below means no (0).

**Query** Could you tell me if the measured apparent KD of K4 kissing-loop reporter of GCCUACGUAGCAGGAUAUAGGUAAGUGAGUGAUGUUCAAGAGUUCUGGAGUGAUGUUCCAAUCUGACUAGAAGGGCUACGUAGGC reaches 200 nM or more?
**Result** no (0)

**Query** Now try GCGCGUCAUGUCAGCGGUGACUAUGUCGAUACCAGCGCCGCAAGGCGCCCUUGGCAGCGACGCGCUGGAGUGAUGUUCCGACGGC [#2 Exclusion - Theophylline A Attempt #9 (HarryS)] .
**Result** no (0)

**Query** Now try AGCUCAGCGUGACUCGAUAAGAGUCACAAACGAGGACCGGUACGGCCGCCACUCGAAAUAAAGGGAGUGAUGUUCUCGCUGAGCA [#SwitchBubble 4 #StaticStem #K4Late] .
**Result** yes (1)

**Query** Now try UCGGGCGGCUGAAGGAGCGGGCGGGCCCGAGUGAUGUUCGGGUGGGCUGUGAGGCCCGGAGCCCAGGUAGGUCGCGGUUCCGCCC [#2 Same State - Arginine B Attempt #28 (HarryS)] .
**Result** no (0)

**Query** Now try GCCCUCUUAACGGCCGCCACUAUAUUUAUGAUCUCUAGUAAGUGAUGUUUACUCCGGCUUAUAGGUAGGACCGGGUUAUUAUCUU [theeternabot_sameState_KL_Trp_B_39] .
**Result** yes (1)
